- Assayed target: Tyk2 (Homo sapiens (Human), UniProt P29597)
- Sequence (P29597 whole entry): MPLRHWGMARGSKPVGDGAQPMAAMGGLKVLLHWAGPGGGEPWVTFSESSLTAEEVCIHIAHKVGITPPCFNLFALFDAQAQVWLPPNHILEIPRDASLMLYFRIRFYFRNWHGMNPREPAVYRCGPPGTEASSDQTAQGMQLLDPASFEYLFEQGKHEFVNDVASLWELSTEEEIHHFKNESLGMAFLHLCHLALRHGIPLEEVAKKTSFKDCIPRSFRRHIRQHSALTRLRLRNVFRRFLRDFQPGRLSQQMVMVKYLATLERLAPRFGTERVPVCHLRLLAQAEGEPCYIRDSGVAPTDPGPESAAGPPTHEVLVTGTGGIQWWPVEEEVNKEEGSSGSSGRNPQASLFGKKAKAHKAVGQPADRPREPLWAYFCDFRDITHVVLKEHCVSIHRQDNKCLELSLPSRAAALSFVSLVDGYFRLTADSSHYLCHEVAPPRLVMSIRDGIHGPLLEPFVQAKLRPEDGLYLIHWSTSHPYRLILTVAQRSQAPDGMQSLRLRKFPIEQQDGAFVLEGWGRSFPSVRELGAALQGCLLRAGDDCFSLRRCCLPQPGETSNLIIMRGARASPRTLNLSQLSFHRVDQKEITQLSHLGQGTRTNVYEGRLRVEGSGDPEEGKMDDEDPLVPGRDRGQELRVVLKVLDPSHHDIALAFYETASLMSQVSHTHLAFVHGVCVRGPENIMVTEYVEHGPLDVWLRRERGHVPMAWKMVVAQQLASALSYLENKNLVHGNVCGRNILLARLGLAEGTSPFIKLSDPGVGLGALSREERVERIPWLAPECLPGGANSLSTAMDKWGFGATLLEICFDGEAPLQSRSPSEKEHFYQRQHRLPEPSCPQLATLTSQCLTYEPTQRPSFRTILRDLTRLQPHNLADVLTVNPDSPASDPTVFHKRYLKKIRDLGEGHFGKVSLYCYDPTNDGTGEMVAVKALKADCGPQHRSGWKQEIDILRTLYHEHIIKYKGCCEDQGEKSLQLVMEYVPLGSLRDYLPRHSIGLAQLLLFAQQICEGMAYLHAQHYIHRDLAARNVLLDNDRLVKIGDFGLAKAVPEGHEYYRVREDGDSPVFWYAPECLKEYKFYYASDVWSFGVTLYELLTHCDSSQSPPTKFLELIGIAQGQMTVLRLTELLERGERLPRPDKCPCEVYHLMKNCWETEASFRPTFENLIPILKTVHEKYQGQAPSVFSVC
- Procedure details: Enzyme assay (Assay Example^a 1), Tyk2
- Type: biochemical
- Condition details: ATP 100 μM
IC50 strictly less than 0.2 µM = 1. Otherwise -1.

{"Smiles structure": "[N-]=[N+]=NC[C@H]1CC[C@H](c2nnn3cnc4[nH]ccc4c23)CC1", "Label value": 1}

Prompt line: Is 0.2 µM strictly greater than the compound's reported IC50? compound: C=C1CCC(c2nnn3cnc4[nH]ccc4c23)CC1
Response line: 1

Prompt line: Okay, and O[C@@H](CNC[C@H]1CC[C@H](c2nnn3cnc4[nH]ccc4c23)CC1)c1ccccc1 ?
Response line: 1

Prompt line: Okay, and O=S(=O)(C[C@H]1CC[C@H](c2nnn3cnc4[nH]ccc4c23)CC1)NCC(F)(F)F ?
Response line: -1

Prompt line: Okay, and O=S(=O)(C[C@H]1CC[C@H](c2nnn3cnc4[nH]ccc4c23)CC1)C1CC1 ?
Response line: -1

Prompt line: Okay, and c1cc2c(ncn3nnc([C@H]4CC[C@H](CN5CCC(N6CCOCC6)CC5)CC4)c23)[nH]1 ?
Response line: -1

Prompt line: Okay, and c1cn(-c2ccc(CN3CCC(c4nnn5cnc6[nH]ccc6c45)CC3)cc2)cn1 ?
Response line: -1

Prompt line: Okay, and FC(F)(F)C(F)(F)CNC[C@H]1CC[C@H](c2nnn3cnc4[nH]ccc4c23)CC1 ?
Response line: -1

Prompt line: Okay, and c1cc2c(ncn3nnc([C@H]4CC[C@H](CN5CCCC5)CC4)c23)[nH]1 ?
Response line: -1

Prompt line: Okay, and Cc1ccc(CN2CCC(c3nnn4cnc5[nH]ccc5c34)CC2)s1 ?
Response line: -1

Prompt line: Okay, and N#CCN(CC1CC1)C[C@H]1CC[C@H](c2nnn3cnc4[nH]ccc4c23)CC1 ?
Response line: 1
